Provenance of the data: ChEMBL document CHEMBL1201862

System: P388;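 also: compound exposure lasted 48 hours before growth was measured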
Assay: cells
Type: functional
Settings: Mus musculus
Activity calls are given as the source filed them. Rule as the data show it: active = GI50 up to about 1.1 µM and inactive = higher.
Use one of these outcomes when replying: active, inactive

Some solved cases for reference:
INSERT INTO measurements (compound, label_value) VALUES
  ('CC(C)(C)OC(=O)NC1CCC(C(C)(C)C)CC1 (centres undefined)', 'inactive'),
  ('C=C1C(=O)OC2C=C(C)CC3C=C(CCC=C(C)CCC12)C(=O)O3 (centres undefined)', 'inactive'),
  ('C#CC[N+](CCO)(CCO)CCCCCCCCCCCCCCCCCC', 'active');

We now examine a further compound.
What classification did CC1OC(CO)(n2cnc3c(N)ncnc32)C(O)C1O (centres undefined) end up with in this test? inactive
